Hey, just so you know, these numbers are from ChEMBL document CHEMBL5532638.

system: Plasmodium falciparum; assay: Antiplasmodial activity against Plasmodium falciparum K1 infected in O+ RBCs assessed as parasite growth inhibition incubated for 36 to 40 hrs by Geimsa staining based analysis; assay type: functional, organism-based, RBC; details: K1, Erythrocyte
Readout kind: pIC50
# reply with the number alone; pIC50 is -log10 of concentration in mol/L

Lookup result for C=C[C@H]1CN2CC[C@H]1C[C@@H]2[C@@H](c1ccnc2ccc(OC)cc12)n1cc(CCCCCC)nn1 ; measured pIC50: 6.55

Lookup result for C=C[C@H]1CN2CC[C@H]1C[C@@H]2[C@@H](c1ccnc2ccc(OC)cc12)n1cc(CCCCCCCCCCCCCC)nn1 ; measured pIC50: 6.55

Lookup result for C=C[C@H]1CN2CC[C@H]1C[C@@H]2[C@@H](c1ccnc2ccc(OC)cc12)n1cc(CN2CCCC2C(=O)OCC)nn1 (some centres undefined) ; measured pIC50: 6.48

Lookup result for C=C[C@H]1CN2CC[C@H]1C[C@@H]2[C@@H](c1ccnc2ccc(OC)cc12)n1cc(C[C@H](N)C(=O)O)nn1 ; measured pIC50: 6.60
